Cited source: ChEMBL document CHEMBL1134098

target: GABA A receptor alpha-4/beta-3/gamma-2 (Homo sapiens, UniProt P18507+P28472+P48169); experiment: Maximal response relative to Gamma-aminobutyric acid A against human Gamma-aminobutyric-acid A receptor alpha-4-beta-3-gamma-2 expressed in Xenopus oocytes; format: functional, cell-based; settings: Oocyte
recorded-endpoint: Max
One number for each entry.

>  <molecule>
O=C(O)Cc1c[nH]cn1 [IMIDAZOLE ACETIC ACID]

>  <measured-on>
GABA A receptor alpha-4/beta-3/gamma-2 (Homo sapiens, UniProt P18507+P28472+P48169)

>  <result-number>
27

$$$$
>  <molecule>
NCCCC(=O)O

>  <measured-on>
GABA A receptor alpha-4/beta-3/gamma-2 (Homo sapiens, UniProt P18507+P28472+P48169)

>  <result-number>
100

$$$$
>  <molecule>
O=[Se](O)C1CCNCC1

>  <measured-on>
GABA A receptor alpha-4/beta-3/gamma-2 (Homo sapiens, UniProt P18507+P28472+P48169)

>  <result-number>
0

$$$$
>  <molecule>
O=C(O)C1=CCNCC1 [ISOGUVACINE]

>  <measured-on>
GABA A receptor alpha-4/beta-3/gamma-2 (Homo sapiens, UniProt P18507+P28472+P48169)

>  <result-number>
88

$$$$
>  <molecule>
O=C(O)C1CCNCC1 [ISONIPECOTIC ACID]

>  <measured-on>
GABA A receptor alpha-4/beta-3/gamma-2 (Homo sapiens, UniProt P18507+P28472+P48169)

>  <result-number>
104

$$$$

Give Max for each listed item.
1. O=S(=O)(O)C1CCNCC1
2. O=[PH](O)C1CCNCC1

7.2
0

molecule NCCC[Se](=O)O , Max observed: 16

* * *

target: GABA-A receptor; alpha-3/beta-3/gamma-2 (Homo sapiens, UniProt P18507+P28472+P34903); test: Agonist activity on human Gamma-aminobutyric acid A receptor alpha-3-beta-3-gamma-2 expressed in Xenopus oocytes; type: functional, cell-based, Oocyte
Sequence (P18507 whole entry): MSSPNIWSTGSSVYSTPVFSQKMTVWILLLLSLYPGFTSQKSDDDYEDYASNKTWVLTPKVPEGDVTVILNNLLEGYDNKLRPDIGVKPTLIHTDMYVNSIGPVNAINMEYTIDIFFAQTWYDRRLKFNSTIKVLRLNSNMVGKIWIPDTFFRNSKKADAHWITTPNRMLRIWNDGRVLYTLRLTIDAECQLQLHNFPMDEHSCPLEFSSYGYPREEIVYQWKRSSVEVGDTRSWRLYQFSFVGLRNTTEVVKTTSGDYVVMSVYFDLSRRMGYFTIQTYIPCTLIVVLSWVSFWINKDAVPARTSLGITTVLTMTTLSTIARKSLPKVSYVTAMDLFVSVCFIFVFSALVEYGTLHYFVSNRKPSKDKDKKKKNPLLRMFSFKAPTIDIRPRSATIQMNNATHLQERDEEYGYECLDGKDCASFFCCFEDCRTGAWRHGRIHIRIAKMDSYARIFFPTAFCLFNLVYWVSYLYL
Sequence (P28472 whole entry): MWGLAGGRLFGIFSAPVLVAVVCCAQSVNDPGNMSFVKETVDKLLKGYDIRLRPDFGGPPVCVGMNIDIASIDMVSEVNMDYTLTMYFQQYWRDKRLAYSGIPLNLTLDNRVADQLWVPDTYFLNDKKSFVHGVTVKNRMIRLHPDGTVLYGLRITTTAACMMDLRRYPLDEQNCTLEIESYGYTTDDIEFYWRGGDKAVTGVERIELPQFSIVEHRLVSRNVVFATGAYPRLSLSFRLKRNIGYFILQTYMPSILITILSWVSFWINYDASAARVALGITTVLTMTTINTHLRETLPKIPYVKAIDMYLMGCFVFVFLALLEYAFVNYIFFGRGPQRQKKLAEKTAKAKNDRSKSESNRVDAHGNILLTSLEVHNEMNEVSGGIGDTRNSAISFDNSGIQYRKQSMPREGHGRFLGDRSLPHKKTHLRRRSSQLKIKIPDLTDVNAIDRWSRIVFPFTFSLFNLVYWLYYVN
Sequence (P34903 whole entry): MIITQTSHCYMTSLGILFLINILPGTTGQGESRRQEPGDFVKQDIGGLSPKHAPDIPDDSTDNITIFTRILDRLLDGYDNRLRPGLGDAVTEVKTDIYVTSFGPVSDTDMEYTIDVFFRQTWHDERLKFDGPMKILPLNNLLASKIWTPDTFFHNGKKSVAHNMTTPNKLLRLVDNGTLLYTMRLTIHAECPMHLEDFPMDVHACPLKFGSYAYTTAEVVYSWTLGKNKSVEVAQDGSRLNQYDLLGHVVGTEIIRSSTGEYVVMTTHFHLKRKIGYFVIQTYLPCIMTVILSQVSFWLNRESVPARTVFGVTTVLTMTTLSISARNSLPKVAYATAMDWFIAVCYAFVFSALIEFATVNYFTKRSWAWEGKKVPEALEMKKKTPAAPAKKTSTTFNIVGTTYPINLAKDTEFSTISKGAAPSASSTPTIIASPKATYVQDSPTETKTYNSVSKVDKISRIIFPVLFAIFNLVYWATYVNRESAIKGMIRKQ
Could you please report measured pEC50 for the items listed next?
Give bare numbers, as −log10 of the molar value.

Worked examples, 5 compounds total:
>  <molecular-string>
NCCC[Se](=O)O

>  <pEC50>
2.31

$$$$
>  <molecular-string>
O=[PH](O)C1CCNCC1

>  <pEC50>
3.80

$$$$
>  <molecular-string>
O=C(O)C1=CCNCC1

>  <pEC50>
4.26

$$$$
>  <molecular-string>
O=S(=O)(O)C1CCNCC1

>  <pEC50>
4.19

$$$$
>  <molecular-string>
O=[Se](O)C1CCNCC1

>  <pEC50>
3.74

$$$$

The value of pEC50 measured for the compound O=C(O)Cc1c[nH]cn1 turned out to be 3.52

* * *

Would you kindly list Max for each of these molecules?
molecular target: GABA-A receptor; alpha-6/beta-3/gamma-2 (Homo sapiens, UniProt P18507+P28472+Q16445); experiment: Maximal response relative to Gamma-aminobutyric acid A against human Gamma-aminobutyric-acid A receptor alpha-6-beta-3-gamma-2 expressed in Xenopus oocytes; format: functional, cell-based; conditions: Oocyte
Sequence (P18507 whole entry): as the sequence (P18507 whole entry) above
Sequence (P28472 whole entry): as the sequence (P28472 whole entry) above
Sequence (Q16445 whole entry): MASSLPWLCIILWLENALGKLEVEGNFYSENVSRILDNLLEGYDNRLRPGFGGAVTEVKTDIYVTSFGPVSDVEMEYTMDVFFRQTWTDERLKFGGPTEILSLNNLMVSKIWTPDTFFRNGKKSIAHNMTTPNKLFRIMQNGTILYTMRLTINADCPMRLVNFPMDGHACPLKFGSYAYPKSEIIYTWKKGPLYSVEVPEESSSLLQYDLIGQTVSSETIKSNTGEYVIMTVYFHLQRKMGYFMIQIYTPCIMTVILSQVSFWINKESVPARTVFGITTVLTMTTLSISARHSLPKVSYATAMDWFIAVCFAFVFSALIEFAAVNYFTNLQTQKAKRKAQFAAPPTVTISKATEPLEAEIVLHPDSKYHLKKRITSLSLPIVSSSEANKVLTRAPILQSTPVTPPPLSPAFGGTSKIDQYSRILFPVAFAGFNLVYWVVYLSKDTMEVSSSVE
Numbers only.

Worked cases, Max given:
>  <molecule>
O=[PH](O)C1CCNCC1

>  <result-number>
35

$$$$
>  <molecule>
O=C(O)Cc1c[nH]cn1 [IMIDAZOLE ACETIC ACID]

>  <result-number>
25

$$$$
>  <molecule>
O=C(O)C1CCNCC1 [ISONIPECOTIC ACID]

>  <result-number>
83

$$$$
>  <molecule>
NCCCC(=O)O

>  <result-number>
100

$$$$
>  <molecule>
O=[Se](O)C1CCNCC1

>  <result-number>
13

$$$$
>  <molecule>
O=S(=O)(O)C1CCNCC1

>  <result-number>
15

$$$$
>  <molecule>
O=C(O)C1=CCNCC1 [ISOGUVACINE]

>  <result-number>
98

$$$$

Here is another molecule to look at.
Entry NCCC[Se](=O)O — recorded Max = 51

* * *

molecular target: GABA-A receptor; alpha-5/beta-3/gamma-2 (Homo sapiens) (UniProt P18507+P28472+P31644); test: Maximal response relative to Gamma-aminobutyric acid A against human Gamma-aminobutyric-acid A receptor alpha-5-beta-3-gamma-2 expressed in Xenopus oocytes; format: functional, cell-based; settings: Oocyte
recorded-endpoint: Max
Answers are plain numbers.

Answered examples (4):
>  <compound>
O=S(=O)(O)C1CCNCC1

>  <recorded-endpoint>
Max

>  <result-number>
92

$$$$
>  <compound>
O=[Se](O)C1CCNCC1

>  <recorded-endpoint>
Max

>  <result-number>
3

$$$$
>  <compound>
O=C(O)Cc1c[nH]cn1 [IMIDAZOLE ACETIC ACID]

>  <recorded-endpoint>
Max

>  <result-number>
56

$$$$
>  <compound>
O=C(O)C1=CCNCC1 [ISOGUVACINE]

>  <recorded-endpoint>
Max

>  <result-number>
94

$$$$

Hi there! I need Max for each item below, if you can.
1. NCCCC(=O)O
2. O=C(O)C1CCNCC1 [ISONIPECOTIC ACID]

1: 100; 2: 57

List Max for every entry below, keeping the order given.
1. O=[PH](O)C1CCNCC1
2. NCCC[Se](=O)O

17
58

* * *

biological target: GABA-A receptor; alpha-6/beta-3/gamma-2 (Homo sapiens, UniProt P18507+P28472+Q16445); assay: Effective agonist dose for human Gamma-aminobutyric acid A receptor alpha-6-beta-3-gamma-2
recorded-endpoint: EC50 (µM)
Answers are plain numbers, in µM.

>  <molecular-string>
O=S(=O)(O)C1CCNCC1

>  <EC50, µM>
20

$$$$
>  <molecular-string>
O=[PH](O)C1CCNCC1

>  <EC50, µM>
140

$$$$
>  <molecular-string>
O=C(O)Cc1c[nH]cn1

>  <EC50, µM>
460

$$$$
>  <molecular-string>
O=C(O)C1CCNCC1

>  <EC50, µM>
160

$$$$
>  <molecular-string>
O=C(O)C1=CCNCC1

>  <EC50, µM>
20

$$$$
>  <molecular-string>
O=[Se](O)C1CCNCC1

>  <EC50, µM>
240

$$$$

The record that follows has no EC50 shown yet.
// assay GABA-A receptor; alpha-6/beta-3/gamma-2 (Homo sapiens, UniProt P18507+P28472+Q16445), entry NCCC[Se](=O)O , EC50 value = 3000

* * *

target: GABA-A receptor; alpha-2/beta-3/gamma-2 (Homo sapiens, UniProt P18507+P28472+P47869); test: Antagonistic potency against human Gamma-aminobutyric acid A receptor alpha-2-beta-3-gamma-2 expressed in Xenopus oocytes at 1 mM
Sequence (P18507 whole entry): as the sequence (P18507 whole entry) above
Sequence (P28472 whole entry): as the sequence (P28472 whole entry) above
Sequence (P47869 whole entry): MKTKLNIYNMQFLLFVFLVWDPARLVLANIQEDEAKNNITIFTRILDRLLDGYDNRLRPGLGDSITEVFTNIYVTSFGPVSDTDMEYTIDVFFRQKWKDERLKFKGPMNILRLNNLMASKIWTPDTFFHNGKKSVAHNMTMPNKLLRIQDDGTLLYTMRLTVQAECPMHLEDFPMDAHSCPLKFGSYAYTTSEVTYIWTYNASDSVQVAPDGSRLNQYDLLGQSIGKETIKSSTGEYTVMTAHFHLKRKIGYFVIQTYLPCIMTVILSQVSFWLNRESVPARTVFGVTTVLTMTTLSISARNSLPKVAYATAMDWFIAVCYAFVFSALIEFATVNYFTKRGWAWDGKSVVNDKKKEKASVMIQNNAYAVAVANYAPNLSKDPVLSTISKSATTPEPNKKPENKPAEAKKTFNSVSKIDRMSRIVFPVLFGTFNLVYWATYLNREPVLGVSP
Give pKi for every item shown.
Answers are plain numbers, as −log10 of the molar value.

>  <molecular-string>
O=P(O)(O)C1CCNCC1

>  <pKi>
2.68

$$$$
>  <molecular-string>
CP(=O)(O)C1CCNCC1

>  <pKi>
3.22

$$$$

Now look at this one.
For reference, reported pKi for O=[PH](O)C1(O)CCNCC1 stands at 2.82
